The reported numbers originate from ChEMBL document CHEMBL1154013.

- TARGET OR SYSTEM: Muscarinic acetylcholine receptor M1 (Homo sapiens)
- Sequence (P11229 whole entry): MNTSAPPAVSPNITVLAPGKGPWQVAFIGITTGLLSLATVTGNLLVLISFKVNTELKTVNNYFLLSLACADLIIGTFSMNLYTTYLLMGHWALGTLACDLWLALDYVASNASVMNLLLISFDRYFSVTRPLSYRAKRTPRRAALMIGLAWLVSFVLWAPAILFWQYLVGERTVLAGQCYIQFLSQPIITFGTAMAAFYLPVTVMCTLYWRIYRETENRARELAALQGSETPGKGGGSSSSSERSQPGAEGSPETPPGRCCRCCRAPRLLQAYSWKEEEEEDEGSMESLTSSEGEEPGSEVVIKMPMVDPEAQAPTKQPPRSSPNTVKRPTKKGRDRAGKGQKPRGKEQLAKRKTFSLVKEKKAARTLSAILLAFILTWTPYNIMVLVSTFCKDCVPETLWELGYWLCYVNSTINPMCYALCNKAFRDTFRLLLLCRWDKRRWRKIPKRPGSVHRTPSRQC
- ASSAY NOTES: Displacement of [3H]N-methyl Scopolamine from human muscarinic M1 receptor expressed in CHO Flp-In cells by liquid scintillation assay
- Assay type: cell-based
Each entry below carries its reported pKi.
Entry type: numeric. Quantity: pKi, the -log10 of concentration in molar units.

SMILES STRING	TARGET OR SYSTEM	pKi
CN(C1CCOCC1)C1CCN(c2nc3ccccc3n2Cc2ccc(F)cc2)CC1	Muscarinic acetylcholine receptor M1 (Homo sapiens)	4.83

Moving on to the next molecule.
Requested field: pKi. Item: CN(CC1CCCCC1)C1CCN(c2nc3ccccc3n2Cc2ccc(F)cc2)CC1 5.41
